Measured GTPγS - hmGluR2 PAM Emax, listed per entry.
ASSAY_SYSTEM: human mGluR2 receptor (Homo sapiens, UniProt Q14416)
Construct: expressed in transfected cells; host or cells: CHO cells (membranes)
Sequence (Q14416 19-872): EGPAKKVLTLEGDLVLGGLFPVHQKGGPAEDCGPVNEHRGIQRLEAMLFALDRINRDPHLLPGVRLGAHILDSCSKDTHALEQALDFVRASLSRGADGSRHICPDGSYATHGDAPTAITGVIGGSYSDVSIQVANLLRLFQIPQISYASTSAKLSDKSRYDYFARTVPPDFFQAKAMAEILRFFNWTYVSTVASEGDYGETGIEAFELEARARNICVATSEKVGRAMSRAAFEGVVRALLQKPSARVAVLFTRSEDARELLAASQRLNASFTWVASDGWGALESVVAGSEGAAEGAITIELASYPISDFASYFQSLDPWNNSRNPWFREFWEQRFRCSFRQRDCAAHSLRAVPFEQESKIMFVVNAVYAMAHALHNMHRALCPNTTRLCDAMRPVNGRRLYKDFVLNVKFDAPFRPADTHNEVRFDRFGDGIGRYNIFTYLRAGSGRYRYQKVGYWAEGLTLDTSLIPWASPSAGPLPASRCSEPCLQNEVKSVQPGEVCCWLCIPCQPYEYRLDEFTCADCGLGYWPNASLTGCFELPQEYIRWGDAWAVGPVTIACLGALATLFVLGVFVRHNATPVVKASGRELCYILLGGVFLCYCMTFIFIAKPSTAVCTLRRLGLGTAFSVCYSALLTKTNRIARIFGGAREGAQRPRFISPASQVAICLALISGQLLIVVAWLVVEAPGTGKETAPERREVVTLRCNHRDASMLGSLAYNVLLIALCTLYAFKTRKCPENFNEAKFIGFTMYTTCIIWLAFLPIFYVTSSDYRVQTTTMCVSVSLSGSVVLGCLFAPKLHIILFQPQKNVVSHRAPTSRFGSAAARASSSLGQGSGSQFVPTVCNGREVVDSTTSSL
ASSAY_TEXT: [35S]GTPγS binding assay, mGluR2 positive allosteric modulation (PAM)
Assay type: biochemical
SETUP_CONDITIONS: membranes from CHO cells transfected with human mGluR2; in presence of glutamate at EC20; maximal % effect relative to the control glutamate response
Numbers only here, please. The scale is %.

{"COMPOUND": "CC1(c2ccccc2)CCN(Cc2ccn3c(CC4CC4)nnc3c2C(F)(F)F)C1 (single isomer, unassigned) [Compound 13]", "METRIC": "GTPγS - hmGluR2 PAM Emax", "SCALE_UNIT": "%", "MEASURED": 248}
{"COMPOUND": "CC1(c2ccccc2)CCN(Cc2ccn3c(CC4CC4)nnc3c2C(F)(F)F)C1 (single isomer, unassigned) [Compound 14]", "METRIC": "GTPγS - hmGluR2 PAM Emax", "SCALE_UNIT": "%", "MEASURED": 286}
{"COMPOUND": "Fc1ccc(C2CN(Cc3ccn4c(CC5CC5)nnc4c3C(F)(F)F)CCO2)c(F)c1 (single isomer, unassigned) [Compound 18]", "METRIC": "GTPγS - hmGluR2 PAM Emax", "SCALE_UNIT": "%", "MEASURED": 242}

**Q:** So what does the record say about GTPγS - hmGluR2 PAM Emax for FC(F)(F)c1c(CN2CCNC(c3ccccc3)C2)ccn2c(CC3CC3)nnc12 (single isomer, unassigned) [Compound 5b] ?
**A:** 278
